# Test system: E. coli K1 strain UTI89
# test: Secondary assay 2: T7 phage-mediated lysis assay
# Format: cell-based, Escherichia coli
# condition: read-out: T7 phage IC50
measurement_label: IC50

Fill in the blank: the reported IC50 of `O=C(O)c1sc(-c2ccc(OCCC(F)(F)F)cc2)cc1NC(=O)c1c(F)cccc1F` is ____. < 156 nM

====

# Tested on: E. coli K1 strain UTI89
# test: Secondary assay 2: T7 phage-mediated lysis assay
# Assay type: cell-based, Escherichia coli
# condition: Escherichia coli, commercial sample, SID 103147605; read-out: T7 phage assay IC50
pIC50: −log10 of the molar value.
measurement_label: pIC50

Fill in the blank: the reported pIC50 of CCOc1ccc(-c2cc(NC(=O)c3c(F)cccc3F)c(C(=O)O)s2)cc1 [ML317] is ____. > 6.41
